Attribution: ChEMBL document CHEMBL3137667

Experimental parameters: human;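 further: value is a count of indexed literature references reporting cirrhosis confirmed by histopathology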
// reported Hepatotoxicity (cirrhosis) for each item listed

Would you please look over these solved cases?
>>> value_measured("CN1C(C(=O)Nc2ccccn2)=C(O)c2ccccc2S1(=O)=O")
0
>>> value_measured("Cc1onc(-c2ccccc2)c1C(=O)N[C@@H]1C(=O)N2[C@@H]1SC(C)(C)[C@@H]2C(=O)O")
0
>>> value_measured("Cc1ccc(C)c(OCCCC(C)(C)C(=O)O)c1")
0

We next turn to a different compound, shown below.
Please give the measured Hepatotoxicity (cirrhosis) for this compound: "C[C@]12COC(=O)C[C@@H]1CC[C@@H]1[C@@H]2CC[C@@]2(C)[C@H]1CC[C@]2(C)O"
0
